- Target entity: PCMT1 1-227 PCMT (domain begin residue: 1, domain end residue: 227), P22061
- Sequence (P22061 whole entry): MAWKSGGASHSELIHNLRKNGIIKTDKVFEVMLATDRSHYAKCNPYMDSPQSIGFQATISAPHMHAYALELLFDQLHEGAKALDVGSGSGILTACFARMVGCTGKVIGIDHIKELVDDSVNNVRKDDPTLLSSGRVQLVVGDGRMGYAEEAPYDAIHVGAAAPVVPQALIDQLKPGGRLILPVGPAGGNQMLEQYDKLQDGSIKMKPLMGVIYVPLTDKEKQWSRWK
- Assay procedure: phage ELISA signal ratio (GST-PRM binding over GST background); higher = stronger binding of peptide-phage to the PRM
Exercise: for every item that follows, state its recorded phage ELISA signal ratio.
Numbers only.

Worked cases, phage ELISA signal ratio given:
Binder | Measurement
SFPFLKMYLDPEPDDV | 11.2
FYMWQVIDAQAYVDWI | 4.8
VHRDYQLGHEWLVFIN | 13.1
HEFWALYDAMPMRSYV | 30.9

Return value of phage ELISA signal ratio for input `TNPPAEHMSRLHWELT` , no commentary.
18.2

Values from the supplement of paper PMC7724964
